# system: CDK9-CYCLINT1 (Homo sapiens)
# Construct: purchased Carna
# Sequence (P50750 whole entry): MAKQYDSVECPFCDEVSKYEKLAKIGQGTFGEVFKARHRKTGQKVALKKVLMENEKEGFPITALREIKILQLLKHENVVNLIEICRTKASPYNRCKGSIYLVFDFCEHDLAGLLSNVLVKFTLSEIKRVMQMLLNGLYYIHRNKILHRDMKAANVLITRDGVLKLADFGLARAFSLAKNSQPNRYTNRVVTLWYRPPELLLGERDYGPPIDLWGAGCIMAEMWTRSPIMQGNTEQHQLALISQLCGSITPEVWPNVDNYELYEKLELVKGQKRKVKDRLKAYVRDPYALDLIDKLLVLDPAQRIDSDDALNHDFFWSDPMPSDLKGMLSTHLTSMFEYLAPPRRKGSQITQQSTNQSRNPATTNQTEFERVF
# Sequence (O60563 whole entry partner): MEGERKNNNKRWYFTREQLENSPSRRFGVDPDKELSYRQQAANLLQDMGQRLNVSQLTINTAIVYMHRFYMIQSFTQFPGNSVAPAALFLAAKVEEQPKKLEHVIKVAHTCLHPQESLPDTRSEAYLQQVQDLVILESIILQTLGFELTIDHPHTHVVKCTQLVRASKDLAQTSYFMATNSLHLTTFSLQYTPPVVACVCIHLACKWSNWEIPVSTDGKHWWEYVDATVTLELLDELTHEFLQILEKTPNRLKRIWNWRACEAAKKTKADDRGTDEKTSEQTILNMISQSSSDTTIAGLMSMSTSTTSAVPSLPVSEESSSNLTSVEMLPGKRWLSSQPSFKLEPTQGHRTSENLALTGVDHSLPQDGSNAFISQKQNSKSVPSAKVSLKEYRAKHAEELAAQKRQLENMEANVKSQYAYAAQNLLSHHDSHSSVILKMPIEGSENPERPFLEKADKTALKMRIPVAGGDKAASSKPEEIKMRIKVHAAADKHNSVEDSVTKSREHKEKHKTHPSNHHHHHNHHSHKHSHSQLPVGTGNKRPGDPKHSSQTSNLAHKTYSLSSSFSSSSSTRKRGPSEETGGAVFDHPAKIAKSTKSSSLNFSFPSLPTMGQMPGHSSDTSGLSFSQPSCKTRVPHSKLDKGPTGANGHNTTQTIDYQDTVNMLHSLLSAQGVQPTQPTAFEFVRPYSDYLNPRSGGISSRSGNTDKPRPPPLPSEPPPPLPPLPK
# methodSummary: Microfluidic LabChip kinase inhibition assay, CDK9-CyclinT1
# Assay type: biochemical
# conditionContext: Table 3a; 10 μM ATP; read-out: CDK9 CyclinT1 IC50
pIC50: −log10 of the molar value.
measurementLabel: pIC50

molecule: Cn1cc(-c2ccc(Nc3ncc4c(n3)N(C3CCCC3)C3(CCNC3=O)C4)cc2)cn1 (centres unmarked) [Compound C168]
pIC50: 7.64
--
molecule: CN1CCN(c2ccc(Nc3ncc4c(n3)N(C3CCCC3)C3(CCNC3=O)C4)cc2)CC1 (centres unmarked) [Compound C115]
pIC50: 6.83
--
molecule: O=C1NCCC12Cc1cnc(Nc3ccc(N4CCC(N5CCOCC5)CC4)c(F)c3)nc1N2C1CCCC1 (centres unmarked) [Compound C132]
pIC50: 7.40
--
molecule: O=C1NCCC12Cc1cnc(Nc3ccc(OCCN4CCCC4)nc3)nc1N2C1CCCC1 (centres unmarked) [Compound C170]
pIC50: 7.55
--
molecule: CC(C)N1CCN(c2ccc(Nc3ncc4c(n3)N(C3CCCC3)C3(CCNC3=O)C4)cc2F)CC1 (centres unmarked) [Compound C118]
pIC50: 7.80
--
molecule: CN1CCN(c2ccc(Nc3ncc4c(n3)N(C3CCCC3)C3(CCNC3=O)C4)cn2)CC1 (centres unmarked) [Compound C129]
pIC50: 7.20
--
molecule: O=C1NCCC12Cc1cnc(Nc3ccc(N4CCC(N5CCOCC5)CC4)cc3)nc1N2C1CCCC1 (centres unmarked) [Compound C131]
pIC50: 6.53
--
molecule: Cc1cc(Nc2ncc3c(n2)N(C2CCCC2)C2(CCNC2=O)C3)ccc1N1CCN(C(C)C)CC1 (centres unmarked) [Compound C121]
pIC50: 6.88
--
molecule: CN1CCC(c2ccc(Nc3ncc4c(n3)N(C3CCCC3)C3(CCNC3=O)C4)cc2)CC1 (centres unmarked) [Compound C164]
pIC50: 6.93
--
molecule: CN1CC2(C1)CN(c1ccc(Nc3ncc4c(n3)N(C3CCCC3)C3(CC(=O)NC3=O)C4)cc1F)C2 (centres unmarked) [Compound C149]
pIC50: 7.07

A. CN(C)[C@H]1CCN(c2ccc(Nc3ncc4c(n3)N(C3CCCC3)C3(CCNC3=O)C4)cc2F)C1 (some centres unmarked) [Compound C173]
B. CN(C)[C@H]1CCN(C(=O)c2ccc(Nc3ncc4c(n3)N(C3CCCC3)C3(CCNC3=O)C4)cc2)C1 (some centres unmarked) [Compound C178]
C. O=C1NCCC12Cc1cnc(Nc3ccc(OCCN4CCOCC4)cc3)nc1N2C1CCCC1 (centres unmarked) [Compound C165]
Exercise: Please list these molecules in decreasing order of pIC50. Note for the reader: the ranking is given by listing the labels in the order requested.
Solution: B, A, C
(B: 8.06, A: 7.47, C: 7.04)

1. O=C1NCCC12Cc1cnc(Nc3ccc(N4CCC(N5CCOCC5)CC4)nc3)nc1N2C1CCCC1 (centres unmarked) [Compound C133]
2. CC(C)N1CC2(CN(c3ccc(Nc4ncc5c(n4)N(C4CCCC4)C4(CC(=O)NC4=O)C5)cc3)C2)C1 (centres unmarked) [Compound C150]
3. CN(C)CCOc1ccc(Nc2ncc3c(n2)N(C2CCCC2)C2(CCNC2=O)C3)cc1 (centres unmarked) [Compound C108]
Exercise: Arrange these 3 molecules in increasing order of pIC50. Note for the reader: the ranking is given by listing the labels in the order requested.
Solution: 2, 1, 3
(2: 6.57, 1: 6.90, 3: 7.68)

Every entry's value here was drawn from patent US20230065740A1.
